B1: LINE1-mini (parent)
chain: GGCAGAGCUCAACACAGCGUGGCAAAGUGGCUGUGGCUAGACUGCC

- Variants of: B1
- protocol_description: self-cleavage, relative activity (ratio to wild type); higher = more cleavage; in vitro, sequencing; the parent is a self-cleaving ribozyme
assay_readout: self-cleavage

Some solved entries appear below for comparison.
mutant_code | self-cleavage
G29C C42A | 0.1
G40C C45U | 0.1

Task item: Return reported self-cleavage; argument: U32G G36U
Reply: 0.1
